# target.entity: wt human LRRK2, catalytic site (Homo sapiens)
# Construct: wt human LRRK2, catalytic site, catalytic site (ThermoFisher/USA)
# Sequence (Q5S007 1879-2138 limits assumed): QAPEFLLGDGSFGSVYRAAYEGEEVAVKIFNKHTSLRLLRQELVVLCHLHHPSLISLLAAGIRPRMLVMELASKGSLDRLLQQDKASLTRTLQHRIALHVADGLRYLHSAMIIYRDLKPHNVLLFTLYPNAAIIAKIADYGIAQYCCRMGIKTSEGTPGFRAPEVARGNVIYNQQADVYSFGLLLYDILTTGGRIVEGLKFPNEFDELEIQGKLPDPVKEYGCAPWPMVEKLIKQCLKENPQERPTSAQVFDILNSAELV
# assay.name: TR-FRET LanthaScreen Tb Kinase Activity Assay, LRRK2 inhibition
# condition: 2 nM wt human LRRK2, 400 nM peptide, 38 μM ATP
pIC50: −log10 of the molar value.
Listed next: entries and their corresponding pIC50.

- molecule: "Cn1cc(-c2cc3c(cn2)NC(c2c(F)cccc2F)=Nc2c(Cl)n[nH]c2-3)cn1 [Example 54]"
  pIC50: "> 9.00"
- molecule: "N#C[C@@H]1CCCN(c2cc3c(cn2)NC(c2c(F)cccc2F)=Nc2c(Cl)n[nH]c2-3)C1 [Example 52]"
  pIC50: "> 9.00"
- molecule: "C[C@H]1CN(c2cc3c(cn2)NC(c2c(F)cccc2F)=Nc2c(Cl)n[nH]c2-3)C[C@H](C)O1 [Example 26]"
  pIC50: "> 9.00"

Then this molecule:
In: Suppose we examine the molecule Cc1n[nH]c2c1N=C(c1c(F)ccc(CO)c1F)Nc1cnc(N3CCOCC3)cc1-2 [Example 50] ; what pIC50 value has been reported?
Out: 7.00 to 9.00
